# assay.text: In vivo biodistribution in mice
# Parameters: species or system normal CD-1 male mice
# recorded.conditions: iv, 120 min
measure.name: bone to muscle ratio
Respond with the number and no other words.

O=C([O-])CN(CCN(CC(=O)[O-])Cc1cc(CCC(=O)NC(P(=O)(O)O)P(=O)(O)O)ccc1[O-])Cc1cc(CCC(=O)NCC(=O)O)ccc1[O-].[68Ga+3] [[^68Ga]1c]; 103

stdin: I would be grateful if you could share the reported bone to muscle ratio for O=C([O-])CN(CCN(CC(=O)[O-])Cc1cc(CCC(=O)NC(P(=O)(O)O)P(=O)(O)O)ccc1[O-])Cc1cc(CCC(=O)NC(P(=O)(O)O)P(=O)(O)O)ccc1[O-].[68Ga+3] [[^68Ga]2] .
stdout: 103

stdin: I would be grateful if you could share the reported bone to muscle ratio for O=C([O-])CN(CCN(CC(=O)[O-])Cc1cc(CCC(=O)NC(P(=O)(O)O)P(=O)(O)O)ccc1[O-])Cc1cc(CCC(=O)NCCCCCC(=O)NCCCC[C@H](NC(=O)N[C@@H](CCC(=O)O)C(=O)O)C(=O)O)ccc1[O-].[68Ga+3] [[^68Ga]1g] .
stdout: 98

stdin: I would be grateful if you could share the reported bone to muscle ratio for O=C([O-])CN(CCN(CC(=O)[O-])Cc1cc(CCC(=O)O)ccc1[O-])Cc1cc(CCC(=O)O)ccc1[O-].[68Ga+3] [[^68Ga]HBED-CC, reference compound] .
stdout: 3.3

stdin: I would be grateful if you could share the reported bone to muscle ratio for O=C([O-])CN(CCN(CC(=O)[O-])Cc1cc(CCC(=O)NC(P(=O)(O)O)P(=O)(O)O)ccc1[O-])Cc1cc(CCC(=O)NCCNC(=O)CN2CCN(CC(=O)O)CCN(CC(=O)O)CCN(CC(=O)O)CC2)ccc1[O-].[68Ga+3] [[^68Ga]1h] .
stdout: 383

---

# assay.text: In vivo biodistribution in mice
# Set-up: species or system normal CD-1 male mice
# recorded.conditions: iv, 60 min (1 hr) post injection
Each entry below lists one item and its recorded Biodistribution: Heart value.
Number only, in % dose/g; omit the unit.

As a guide, the following entries are already answered.
O=C([O-])CN(CCN(CC(=O)[O-])Cc1cc(CCC(=O)NC(P(=O)(O)O)P(=O)(O)O)ccc1[O-])Cc1cc(CCC(=O)O)ccc1[O-].[68Ga+3] [[^68Ga]1a]; 0.12
O=C([O-])CN(CCN(CC(=O)[O-])Cc1cc(CCC(=O)NC(P(=O)(O)O)P(=O)(O)O)ccc1[O-])Cc1cc(CCC(=O)NCC(=O)O)ccc1[O-].[68Ga+3] [[^68Ga]1c]; 0.24
O=C([O-])CN(CCN(CC(=O)[O-])Cc1cc(CCC(=O)NC(P(=O)(O)O)P(=O)(O)O)ccc1[O-])Cc1cc(CCC(=O)NCCCNC(=O)CCc2ccc(O)c(CN(CCN(CC(=O)O)Cc3cc(CCC(=O)NC(P(=O)(O)O)P(=O)(O)O)ccc3O)CC(=O)O)c2)ccc1[O-].[68Ga+3] [[^68Ga]3]; 1.16
O=C([O-])CN(CCN(CC(=O)[O-])Cc1cc(CCC(=O)N[C@@H](CC(=O)O)C(=O)O)ccc1[O-])Cc1cc(CCC(=O)NC(P(=O)(O)O)P(=O)(O)O)ccc1[O-].[68Ga+3] [[^68Ga]1e]; 0.08
O=C([O-])CN(CCN(CC(=O)[O-])Cc1cc(CCC(=O)O)ccc1[O-])Cc1cc(CCC(=O)O)ccc1[O-].[68Ga+3] [[^68Ga]HBED-CC, reference compound]; 0.17
O=C(O)CN1CCN(CC(=O)O)CCN(CC(=O)NC(P(=O)(O)O)P(=O)(O)O)CCN(CC(=O)O)CC1.[68Ga] [[^68Ga]BPAMD, reference compound]; 0.37
O=C([O-])CN1CCN(CC(=O)[O-])CCN(CC(=O)NCCNC(=O)CCc2ccc(O)c(CN(CCN(CC(=O)O)Cc3cc(CCC(=O)NC(P(=O)(O)O)P(=O)(O)O)ccc3O)CC(=O)O)c2)CCN(CC(=O)[O-])CC1.[177Lu+3] [[^177Lu]1h]; 0.08
O=C([O-])CN(CCN(CC(=O)[O-])Cc1cc(CCC(=O)N[C@@H](CCC(=O)O)C(=O)O)ccc1[O-])Cc1cc(CCC(=O)NC(P(=O)(O)O)P(=O)(O)O)ccc1[O-].[68Ga+3] [[^68Ga]1f]; 0.11

Next molecule, Biodistribution: Heart to be filled in.
stdin: I would be grateful if you could share the reported Biodistribution: Heart for O=C([O-])CN(CCN(CC(=O)[O-])Cc1cc(CCC(=O)NC(P(=O)(O)O)P(=O)(O)O)ccc1[O-])Cc1cc(CCC(=O)NC2C(O)OC(CO)C(O)C2O)ccc1[O-].[68Ga+3] (centres unmarked) [[^68Ga]1b] .
stdout: 0.37

---

# assay.text: In vivo biodistribution in mice
# Parameters: species or system normal CD-1 male mice
# recorded.conditions: iv, 30 min
measure.name: bone to muscle ratio
Respond with the number and no other words.

O=C([O-])CN(CCN(CC(=O)[O-])Cc1cc(CCC(=O)NC(P(=O)(O)O)P(=O)(O)O)ccc1[O-])Cc1cc(CCC(=O)NCCNC(=O)CN2CCN(CC(=O)O)CCN(CC(=O)O)CCN(CC(=O)O)CC2)ccc1[O-].[68Ga+3] [[^68Ga]1h]; 85
O=C([O-])CN1CCN(CC(=O)[O-])CCN(CC(=O)NCCNC(=O)CCc2ccc(O)c(CN(CCN(CC(=O)O)Cc3cc(CCC(=O)NC(P(=O)(O)O)P(=O)(O)O)ccc3O)CC(=O)O)c2)CCN(CC(=O)[O-])CC1.[177Lu+3] [[^177Lu]1h]; 41
O=C([O-])CN(CCN(CC(=O)[O-])Cc1cc(CCC(=O)NC(P(=O)(O)O)P(=O)(O)O)ccc1[O-])Cc1cc(CCC(=O)NC2C(O)OC(CO)C(O)C2O)ccc1[O-].[68Ga+3] (stereo not shown) [[^68Ga]1b]; 68

Next molecule, bone to muscle ratio to be filled in.
stdin: I would be grateful if you could share the reported bone to muscle ratio for O=C([O-])CN(CCN(CC(=O)[O-])Cc1cc(CCC(=O)O)ccc1[O-])Cc1cc(CCC(=O)O)ccc1[O-].[68Ga+3] [[^68Ga]HBED-CC, reference compound] .
stdout: 0.9

---

Each entry below lists one item and its recorded Biodistribution: Pancreas value.
# assay.text: In vivo biodistribution in mice
# Set-up: species or system normal CD-1 male mice
# recorded.conditions: iv, 30 min (0.5 hr) post injection
Number only, in % dose/g; omit the unit.

As a guide, the following entries are already answered.
O=C([O-])CN(CCN(CC(=O)[O-])Cc1cc(CCC(=O)NC(P(=O)(O)O)P(=O)(O)O)ccc1[O-])Cc1cc(CCC(=O)O)ccc1[O-].[68Ga+3] [[^68Ga]1a]; 0.30
O=C([O-])CN(CCN(CC(=O)[O-])Cc1cc(CCC(=O)O)ccc1[O-])Cc1cc(CCC(=O)O)ccc1[O-].[68Ga+3] [[^68Ga]HBED-CC, reference compound]; 0.26

Next compound, Biodistribution: Pancreas to be filled in.
stdin: I would be grateful if you could share the reported Biodistribution: Pancreas for O=C([O-])CN(CCN(CC(=O)[O-])Cc1cc(CCC(=O)N[C@@H](CCC(=O)O)C(=O)O)ccc1[O-])Cc1cc(CCC(=O)NC(P(=O)(O)O)P(=O)(O)O)ccc1[O-].[68Ga+3] [[^68Ga]1f] .
stdout: 0.15

---

# assay.text: In vivo biodistribution in mice
# Set-up: species or system normal CD-1 male mice
# recorded.conditions: iv, 2 min post injection
Each entry below lists one item and its recorded Biodistribution: Muscle value.

As a guide, the following entries are already answered.
O=C([O-])CN(CCN(CC(=O)[O-])Cc1cc(CCC(=O)O)ccc1[O-])Cc1cc(CCC(=O)O)ccc1[O-].[68Ga+3] [[^68Ga]HBED-CC, reference compound]; 2.30 ± 0.13 % dose/g
O=C([O-])CN(CCN(CC(=O)[O-])Cc1cc(CCC(=O)NC(P(=O)(O)O)P(=O)(O)O)ccc1[O-])Cc1cc(CCC(=O)NCCCCCC(=O)NCCCC[C@H](NC(=O)N[C@@H](CCC(=O)O)C(=O)O)C(=O)O)ccc1[O-].[68Ga+3] [[^68Ga]1g]; 2.19 ± 0.11 % dose/g

Next compound, Biodistribution: Muscle to be filled in.
stdin: I would be grateful if you could share the reported Biodistribution: Muscle for [18F-].[Na+] [[^18F]NaF, reference compound] .
stdout: 1.50 ± 0.06 % dose/g

---

# assay.text: In vivo biodistribution in mice
# Parameters: species or system normal CD-1 male mice
# recorded.conditions: iv, 120 min post injection
Each entry below lists one item and its recorded Biodistribution: Bone value.
Number only, in % dose/g; omit the unit.

O=C([O-])CN(CCN(CC(=O)[O-])Cc1cc(CCC(=O)N[C@@H](CCC(=O)O)C(=O)O)ccc1[O-])Cc1cc(CCC(=O)NC(P(=O)(O)O)P(=O)(O)O)ccc1[O-].[68Ga+3] [[^68Ga]1f]; 16.7

stdin: I would be grateful if you could share the reported Biodistribution: Bone for O=C([O-])CN(CCN(CC(=O)[O-])Cc1cc(CCC(=O)NC(P(=O)(O)O)P(=O)(O)O)ccc1[O-])Cc1cc(CCC(=O)O)ccc1[O-].[68Ga+3] [[^68Ga]1a] .
stdout: 23.9

stdin: I would be grateful if you could share the reported Biodistribution: Bone for O=C(O)CN1CCN(CC(=O)O)CCN(CC(=O)NC(P(=O)(O)O)P(=O)(O)O)CCN(CC(=O)O)CC1.[68Ga] [[^68Ga]BPAMD, reference compound] .
stdout: 9.62
